experiment: HFrEF study Part 2 (MAD Cohorts A-D): plasma pharmacokinetics; format: in vivo, human; details: human, plasma, oral, 75 mg, MAD Cohort C, 75 mg BID (with food); individual subjects; read-out: Cmax, Day 1
MEASURE NAME: Cmax (ng/mL)
Quick reminder: number only, in ng/mL, skip the unit.

Query: Report Cmax for Cn1cc(S(=O)(=O)[C@@](C)(F)C2CCN(C(=O)Nc3ccon3)CC2)c(C(F)F)n1 [Compound I] please.
Reply: 1780

----------
test: Food effect cross-over study, 200 mg (25 mg tablets), healthy volunteers: plasma pharmacokinetics; assay type: in vivo, human; conditions: human, plasma, oral, 6 hours postdose, Fasted, read-out: Plasma concentration, Geometric Mean
MEASURE NAME: concentration at 6 h (ng/mL)
Quick reminder: number only, in ng/mL, skip the unit.

Query: Report concentration at 6 h for Cn1cc(S(=O)(=O)[C@@](C)(F)C2CCN(C(=O)Nc3ccon3)CC2)c(C(F)F)n1 please.
Reply: 2170
